# TARGET: Genome polyprotein (Dengue virus type 2 (strain 16681-PDK53))
# ASSAY_REMARKS: flavivirus cap methylation enzyme inhibition – biochemical, confirmation dose response, primary screen (AID 588689)
# TEST_PARAMETERS: Dengue-2 NS5 methyltransferase capping enzyme assay, at 25 µM, stronger effect = higher value
The whole screen tested about 340,000 compounds, of which about 1,000 (0.29%) were called active. Only a sample is shown. Results with a measured potency or affinity are listed apart.
METRIC_NAME: inhibition (%)
Kindly provide the numeric value in % only, without the unit symbol.

Past entries and their recorded results:
smiles_structure=COc1ccccc1-c1cc(N)n[nH]1 unit_abbreviation=% reported=2.4
smiles_structure=CC(=O)Nc1ccc2c(c1)CCc1ccccc1-2 unit_abbreviation=% reported=-9.7
smiles_structure=CCc1ccc(S(=O)(=O)/N=C2\C=C(Nc3ccc(C(=O)O)cc3)C(=O)c3ccccc32)cc1 unit_abbreviation=% reported=26.1

Moving on to the next compound.
Ask | Hello, I am looking for reported inhibition with Genome polyprotein (Dengue virus type 2 (strain 16681-PDK53)) for CCc1ccc(S(=O)(=O)/N=C2\C=C(Nc3cccc(C(=O)O)c3)C(=O)c3ccccc32)cc1 . Could you help?
Reply | 5.86
